Tested on: V79 (fibroblast from Chinese hamster lung)
testDetails: Sulforhodamine B cytotoxicity assay, V79
Format: cell-based
measurementSetup: Cricetulus griseus, SRB assay, 48 h, mean (SD), n = 3
assayMetric: IC50 (µM)
The response must be a number in µM with no trailing unit.

Answered examples (3):
compound	measuredTarget	unitInfo	numericValue
Cc1cc(C)c(C(=O)NCC(=O)N/N=C/c2c3ccccc3cc3ccccc23)c(S)n1 [PS35]	V79 (fibroblast from Chinese hamster lung)	µM	196
CN1C(C(=O)Nc2ccccn2)=C(O)c2ccccc2S1(=O)=O [Piroxicam, reference compound]	V79 (fibroblast from Chinese hamster lung)	µM	200
Cc1ccc(/C=N/NC(=O)CNC(=O)c2c(C)cc(C)nc2S)cc1 [PS33, N′-4-methylphenylmethylene derivative]	V79 (fibroblast from Chinese hamster lung)	µM	178

Consider the compound Cc1cc(C)c(C(=O)NCC(=O)N/N=C/c2cccc3ccccc23)c(S)n1 [PS34, N′-naphtylmethylene derivative] and give its recorded IC50. 421

State, in one line, measured IC50 of Cc1cc(C)c(C(=O)NCC(=O)N/N=C/c2ccc(Cl)cc2Cl)c(S)n1 [PS41] 418

Read off the recorded IC50 for Cc1cc(C)c(C(=O)NCC(=O)N/N=C/c2ccccc2)c(S)n1 [PS18, N′-phenylmethylene derivative] 275

Report measured IC50; entry is Cc1cc(C)c(C(=O)NCC(=O)N/N=C/c2ccc([N+](=O)[O-])cc2)c(S)n1 [PS36] 141

Specify reported IC50 for the compound shown: Cc1cnc(NC(=O)C2=C(O)c3ccccc3S(=O)(=O)N2C)s1 [Meloxicam, reference compound] 232

Cited source for all entries: paper PMC6471528
